- target_or_system: T1, human TfR apical domain (human)
- T1 chain: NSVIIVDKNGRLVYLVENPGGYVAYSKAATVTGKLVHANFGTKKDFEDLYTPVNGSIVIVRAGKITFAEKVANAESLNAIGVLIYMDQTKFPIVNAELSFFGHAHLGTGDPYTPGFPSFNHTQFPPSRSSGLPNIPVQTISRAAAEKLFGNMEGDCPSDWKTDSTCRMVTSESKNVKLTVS
- protocol_notes: SPR
property_label: Kd (µM)
I only need the number, in µM, no unit after it.

Incoming: Please give the measured Kd for this binder: 35.d1.14 (protein) ASTKGPSVFPLAPSSKSTSGGTAALGCLVKDYFPEPVTVSWNSGALTSGVHTFPAVLQSSGLYSLSSVVTVPSSSLGTQTYICNVNHKPSNTKVDKKVEPKSCDKTHTCPPCPAPELLGGPSVFLFPPKPKDTLMISRTPEVTCVVVDVSHEDPEVKFNWYVDGVEVHNAKTKPREEQYNSTYRVVSVLTVLHQDWLNGKEYKCKVSNKALPAPIEKTISKAKGQPREPQVYTLPPSRDELTKNQVSLTCLVKGFYPSDIAVEWESYGTEWTNYKTTPPVLDSDGSFFLYSKLTVSKSEWQQGFVFSCSVMHEALHNHYTQKSLSLSPELQLEESCAEAQDGELDGLWTT
Outgoing: 11.7
